Source listed as patent US20240287025A1.

# assayed system: Brd4 BD1 (Homo sapiens (Human), UniProt O60885)
# protocol summary: HTRF evaluation of bromodomain inhibitors, Brd4 BD1
# Assay type: binding
# test settings: H4ac4 peptide 50 nM, 4 h at 4° C.
Could you please report measured IC50 for the items listed next?
The answer is to be given in nM; state only the numeric part.

Prompt line: Query: IC50; subject: CC[C@H]1[C@@H](C)[C@H](NC(=O)OC(C)C)c2cc(C(=O)OC)ccc2N1C(C)=O
Response line: 24200

Prompt line: // next record CC[C@H]1[C@@H](C)[C@H](n2cc(COCCOCCOCc3cn(C4c5cc(C(=O)OC)ccc5N(C(C)=O)[C@@H](CC)[C@H]4C)nn3)nn2)c2cc(C(=O)OC)ccc2N1C(C)=O (some centres unmarked)
Response line: 1670

Prompt line: Would you kindly repeat that for CC[C@H]1[C@@H](C)[C@H](n2cc(COCCOCCOCCOCCOCc3cn(C4c5cc(C(=O)OC)ccc5N(C(C)=O)[C@@H](CC)[C@H]4C)nn3)nn2)c2cc(C(=O)OC)ccc2N1C(C)=O (some centres unmarked) ?
Response line: 1470

Prompt line: And the next one, CC[C@H]1[C@@H](C)[C@H](N=[N+]=[N-])c2cc(C(F)(F)F)ccc2N1C(C)=O ?
Response line: 67000

Prompt line: Proceed to C=CCCCC(=O)Nc1ccc(-c2ccc3c(c2)[C@H](N=[N+]=[N-])[C@@H](C)[C@@H](CC)N3C(C)=O)cc1
Response line: 22400

Prompt line: What would you report for CC[C@H]1[C@@H](C)C(n2cc(COCCOCCOCCOCCOCCOCc3cn(C4c5cc(C(=O)OC)ccc5N(C(C)=O)[C@@H](CC)[C@H]4C)nn3)nn2)c2cc(C(=O)OC)ccc2N1C(C)=O (some centres unmarked) ?
Response line: 1560

Prompt line: Next entry: CC[C@H]1[C@@H](C)[C@H](N=[N+]=[N-])c2cc(C(=O)OC)ccc2N1C(C)=O
Response line: 17700

Prompt line: Try this compound too: CC[C@H]1[C@@H](C)[C@H](n2nnc3c2CCC2C(CO)C2CC3)c2cc(C(=O)OC)ccc2N1C(C)=O (some centres unmarked)
Response line: 33600

Prompt line: // next record CC[C@H]1[C@@H](C)[C@H](n2cc(COCCOCCOCCOCc3cn(C4c5cc(C(=O)OC)ccc5N(C(C)=O)[C@@H](CC)[C@H]4C)nn3)nn2)c2cc(C(=O)OC)ccc2N1C(C)=O (some centres unmarked)
Response line: 1850

* * *

# assayed system: Brd4 BD2 (Homo sapiens (Human), UniProt O60885)
# protocol summary: HTRF evaluation of bromodomain inhibitors, Brd4 BD2
# Format: binding
# test settings: HTRF, H4ac4 peptide 600 nM, 24 h at 4° C.
# Experimental: HTRF reagents and buffers were purchased from Cisbio Bioassays. […] Experiments were performed in 384-well white plates (Greiner ref. 781080) and analyzed in a ClarioStar plate reader (BMG LABTECH, excitation at 330 nm and emission at 620 and 665 nm, corresponding to the donor and acceptor emission peaks, respectively; the 665/620 ratio is used to calculate the specific HTRF signal) with an integration delay of 60 μs and an integration time of 400 μs.
result type: IC50 (nM)
Field format: number, assumed nM, no unit text.

Prompt line: Given the molecule CCCCCc1cn([C@H]2c3cc(C(=O)OC)ccc3N(C(C)=O)[C@H](CC)[C@@H]2C)nn1 , what is its reported IC50?
Response line: 8330

Prompt line: Subsequent entry: CC[C@H]1[C@@H](C)[C@H](n2cc(-c3ccc(OC)cc3)nn2)c2cc(C(=O)OC)ccc2N1C(C)=O
Response line: 563

Prompt line: And CC[C@H]1[C@@H](C)[C@H](n2cc(COCCOCCOCCOCCOCc3cn(C4c5cc(C(=O)OC)ccc5N(C(C)=O)[C@@H](CC)[C@H]4C)nn3)nn2)c2cc(C(=O)OC)ccc2N1C(C)=O (stereo partly shown) ?
Response line: 129

Prompt line: Follow-up entry: CC[C@H]1[C@@H](C)[C@H](n2cc(C3CCCCC3)nn2)c2cc(C(=O)OC)ccc2N1C(C)=O
Response line: 860

Prompt line: Item: C=CCCCC(=O)Nc1ccc(-c2ccc3c(c2)[C@@H](NC(=O)OC(C)C)[C@H](C)[C@H](CC)N3C(C)=O)cc1
Response line: 2170

Prompt line: Also CC[C@@H]1[C@H](C)[C@@H](n2cc(-c3ccccc3)nn2)c2cc(C(=O)OC)ccc2N1C(C)=O (single isomer, unassigned) ?
Response line: 51400

* * *

# assayed system: Brd4 BD2 (Homo sapiens (Human))
# protocol summary: HTRF evaluation of bromodomain inhibitors, Brd4 BD2
# Assay type: binding
# test settings: HTRF, H4ac4 peptide 600 nM, 24 h at 4° C.
Could you please report measured IC50 for the items listed next?
Express your answer in nM, writing the number without its unit.

Prompt line: Dear colleague, I am looking for the recorded IC50 of the following compound: CC[C@H]1[C@@H](C)[C@H](n2nnc3c2CCC2C(CO)C2CC3)c2cc(C(=O)OC)ccc2N1C(C)=O (stereo partly shown) [YI]
Response line: 798

Prompt line: Next compound: C#CCOCCOCCOCc1cn([C@@H]2c3cc(C(=O)OC)ccc3N(C(C)=O)[C@@H](CC)[C@H]2C)nn1 [XQ]
Response line: 1490

Prompt line: Consider next the compound CC[C@H]1[C@@H](C)[C@H](Nc2ncc(Cl)cn2)c2cc(C(=O)OC)ccc2N1C(C)=O [XL] in the same way.
Response line: 1130

Prompt line: Follow-up entry: CC[C@H]1[C@@H](C)[C@H](n2cc(COCCOCCOCCOCC#Cc3cccc4c3CN(C3CCC(=O)NC3=O)C4=O)nn2)c2cc(C(=O)OC)ccc2N1C(C)=O (stereo partly shown) [YF]
Response line: 1330

* * *

Give measured Selectivity BD2/BD1 for each item. Keep answers brief.
# assayed system: Brd4 BD2 (Homo sapiens (Human))
# protocol summary: HTRF evaluation of bromodomain inhibitors, Brd4 BD2
# Format: binding
# test settings: ratio of the BD1 and BD2 IC50
// no unit string in output, number only

Prompt line: Could you share what Selectivity BD2/BD1 was measured for C=CCCCC(=O)Nc1ccc(-c2ccc3c(c2)[C@H](NC(=O)OC(C)C)[C@@H](C)[C@@H](CC)N3C(C)=O)cc1 [ent-XI] , tested on Brd4 BD2 (Homo sapiens (Human))?
Response line: 2.0

Prompt line: Follow-up entry: CC[C@H]1[C@@H](C)C(n2cc(COCCOCc3cn(C4c5cc(C(=O)OC)ccc5N(C(C)=O)[C@@H](CC)[C@H]4C)nn3)nn2)c2cc(C(=O)OC)ccc2N1C(C)=O (stereo partly drawn) [XU]
Response line: 4.3

Prompt line: Next up: CC[C@H]1[C@@H](C)[C@H](n2cc(COCCOCCOCc3cn(C4c5cc(C(=O)OC)ccc5N(C(C)=O)[C@@H](CC)[C@H]4C)nn3)nn2)c2cc(C(=O)OC)ccc2N1C(C)=O (stereo partly drawn) [XV]
Response line: 0.7

* * *

# assayed system: Brd4 BD2 (Homo sapiens (Human), UniProt O60885)
# protocol summary: HTRF evaluation of bromodomain inhibitors, Brd4 BD2
# Type: binding
# test settings: HTRF, H4ac4 peptide 600 nM, 24 h at 4° C.
Please go through the items and note down their log10 IC50.
Hey, these are logged values: log10 of IC50, nM being the unit before logging.

Prompt line: Requested read-out: log10 IC50. Entry: C=CCCCC(=O)Nc1ccc(-c2ccc3c(c2)[C@@H](n2cc(CCCCC)nn2)[C@H](C)[C@H](CC)N3C(C)=O)cc1 [XE]
Response line: 3.50

Prompt line: Check CC[C@@H]1[C@H](C)[C@@H](NC(=O)OC(C)C)c2cc(C(=O)OC)ccc2N1C(C)=O [ent-XJ] too.
Response line: 4.25

Prompt line: Next compound up: CC[C@H]1[C@H](C)[C@@H](n2cc(-c3ccccc3)nn2)c2cc(C(=O)OC)ccc2N1C(C)=O [Compound 31]
Response line: 4.17

Prompt line: Can you check CCCCCc1cn([C@@H]2c3cc(C(=O)OC)ccc3N(C(C)=O)[C@@H](CC)[C@H]2C)nn1 [XF] next?
Response line: 3.29

Prompt line: // repeat for CC[C@H]1[C@@H](C)[C@H](n2cc(-c3ccc(C(F)(F)F)cc3)nn2)c2cc(C(=O)OC)ccc2N1C(C)=O [XN] and report
Response line: 3.28

Prompt line: Further, for CCCCCc1cn([C@@H]2c3cc(C(F)(F)F)ccc3N(C(C)=O)[C@@H](CC)[C@H]2C)nn1 [YD] ?
Response line: 3.76

Prompt line: Check CC[C@H]1[C@@H](C)[C@H](n2cc(COCCOCC#Cc3cccc4c3CN(C3CCC(=O)NC3=O)C4=O)nn2)c2cc(C(=O)OC)ccc2N1C(C)=O (stereo partly drawn) [YE] too.
Response line: 2.69

Prompt line: Can you handle C=CCCCC(=O)Nc1ccc(-c2ccc3c(c2)[C@@H](Nc2ncc(Cl)cn2)[C@H](C)[C@H](CC)N3C(C)=O)cc1 [XK] next?
Response line: 3.12
